Target: Phosphatidylinositol 4,5-bisphosphate 3-kinase catalytic subunit delta isoform (Homo sapiens)
Sequence (O00329 whole entry): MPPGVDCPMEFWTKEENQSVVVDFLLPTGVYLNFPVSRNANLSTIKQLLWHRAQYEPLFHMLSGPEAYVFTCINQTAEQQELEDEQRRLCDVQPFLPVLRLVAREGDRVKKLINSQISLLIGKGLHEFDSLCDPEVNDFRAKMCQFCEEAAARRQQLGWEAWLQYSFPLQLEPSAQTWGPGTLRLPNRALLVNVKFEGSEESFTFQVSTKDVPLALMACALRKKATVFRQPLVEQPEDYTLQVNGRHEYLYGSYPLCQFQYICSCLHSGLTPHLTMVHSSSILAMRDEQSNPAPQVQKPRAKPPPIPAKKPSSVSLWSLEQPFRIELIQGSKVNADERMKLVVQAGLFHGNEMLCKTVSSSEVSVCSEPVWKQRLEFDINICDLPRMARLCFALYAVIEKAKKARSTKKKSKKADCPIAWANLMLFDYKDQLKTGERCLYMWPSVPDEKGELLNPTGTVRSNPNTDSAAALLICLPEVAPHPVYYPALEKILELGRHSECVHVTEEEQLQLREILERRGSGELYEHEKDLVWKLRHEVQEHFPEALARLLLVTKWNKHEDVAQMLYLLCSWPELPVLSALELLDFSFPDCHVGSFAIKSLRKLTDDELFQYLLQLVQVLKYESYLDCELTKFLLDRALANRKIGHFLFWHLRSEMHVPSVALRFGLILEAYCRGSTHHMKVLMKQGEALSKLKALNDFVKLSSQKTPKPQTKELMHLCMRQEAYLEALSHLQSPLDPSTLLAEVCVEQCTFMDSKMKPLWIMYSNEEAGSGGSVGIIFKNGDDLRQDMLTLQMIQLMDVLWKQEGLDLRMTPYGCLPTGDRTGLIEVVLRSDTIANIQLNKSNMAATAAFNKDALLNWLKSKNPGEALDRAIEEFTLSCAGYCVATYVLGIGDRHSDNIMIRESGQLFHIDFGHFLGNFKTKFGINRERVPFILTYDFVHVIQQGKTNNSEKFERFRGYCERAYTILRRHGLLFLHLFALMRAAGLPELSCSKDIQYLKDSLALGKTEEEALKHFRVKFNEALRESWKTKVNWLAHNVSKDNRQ
Assay: Inhibition of PI3K p110delta
EXPERIMENTAL_ENDPOINT: pIC50
// pIC50 is dimensionless: -log10 of concentration (M)

Below, each entry is followed by its recorded pIC50 result.
1) Cc1nc2cnc3ccc(C#Cc4cccnc4)cc3c2n1-c1ccc(C(C)C#N)cc1 (stereo not drawn)	7.46
2) N#CCc1ccc(-n2cnc3cnc4ccc(C#Cc5cccnc5)cc4c32)cc1	7.01

Please turn your attention to the following entry.
**Query** What value of pIC50 has been recorded for this entry: Cn1c(=O)n(-c2ccc(C(C)(C)C#N)cc2)c2c3cc(C#Cc4cccnc4)ccc3ncc21
**Result** 6.70

====

Molecular target: 3-phosphoinositide-dependent protein kinase 1 (Homo sapiens, UniProt O15530)
Sequence (O15530 whole entry): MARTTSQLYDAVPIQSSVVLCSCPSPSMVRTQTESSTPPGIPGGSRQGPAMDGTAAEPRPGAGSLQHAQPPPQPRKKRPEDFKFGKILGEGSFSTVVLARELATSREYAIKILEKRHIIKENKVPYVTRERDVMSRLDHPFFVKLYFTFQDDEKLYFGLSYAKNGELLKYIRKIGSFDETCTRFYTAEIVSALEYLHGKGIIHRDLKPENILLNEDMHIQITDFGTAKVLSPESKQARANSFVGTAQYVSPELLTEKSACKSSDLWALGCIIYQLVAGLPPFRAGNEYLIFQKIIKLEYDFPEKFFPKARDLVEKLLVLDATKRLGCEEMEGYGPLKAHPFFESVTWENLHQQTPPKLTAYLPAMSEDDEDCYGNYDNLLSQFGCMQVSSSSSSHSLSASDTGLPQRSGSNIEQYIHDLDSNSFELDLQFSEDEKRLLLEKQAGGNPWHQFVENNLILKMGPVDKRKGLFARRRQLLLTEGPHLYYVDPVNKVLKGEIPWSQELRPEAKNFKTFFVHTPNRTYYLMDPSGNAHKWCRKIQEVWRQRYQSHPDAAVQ
EXPERIMENTAL_ENDPOINT: pIC50
// pIC50 is dimensionless: -log10 of concentration (M)

**Query** What measured pIC50 is associated with N#CCc1ccc(-n2cnc3cnc4ccc(C#Cc5cccnc5)cc4c32)cc1 on 3-phosphoinositide-dependent protein kinase 1 (Homo sapiens, UniProt O15530)?
**Result** 7.47

====

Reported IC50 by item:
Biological target: Phosphatidylinositol 4,5-bisphosphate 3-kinase catalytic subunit beta isoform (Homo sapiens, UniProt P42338)
Sequence (P42338 whole entry, canonical isoform): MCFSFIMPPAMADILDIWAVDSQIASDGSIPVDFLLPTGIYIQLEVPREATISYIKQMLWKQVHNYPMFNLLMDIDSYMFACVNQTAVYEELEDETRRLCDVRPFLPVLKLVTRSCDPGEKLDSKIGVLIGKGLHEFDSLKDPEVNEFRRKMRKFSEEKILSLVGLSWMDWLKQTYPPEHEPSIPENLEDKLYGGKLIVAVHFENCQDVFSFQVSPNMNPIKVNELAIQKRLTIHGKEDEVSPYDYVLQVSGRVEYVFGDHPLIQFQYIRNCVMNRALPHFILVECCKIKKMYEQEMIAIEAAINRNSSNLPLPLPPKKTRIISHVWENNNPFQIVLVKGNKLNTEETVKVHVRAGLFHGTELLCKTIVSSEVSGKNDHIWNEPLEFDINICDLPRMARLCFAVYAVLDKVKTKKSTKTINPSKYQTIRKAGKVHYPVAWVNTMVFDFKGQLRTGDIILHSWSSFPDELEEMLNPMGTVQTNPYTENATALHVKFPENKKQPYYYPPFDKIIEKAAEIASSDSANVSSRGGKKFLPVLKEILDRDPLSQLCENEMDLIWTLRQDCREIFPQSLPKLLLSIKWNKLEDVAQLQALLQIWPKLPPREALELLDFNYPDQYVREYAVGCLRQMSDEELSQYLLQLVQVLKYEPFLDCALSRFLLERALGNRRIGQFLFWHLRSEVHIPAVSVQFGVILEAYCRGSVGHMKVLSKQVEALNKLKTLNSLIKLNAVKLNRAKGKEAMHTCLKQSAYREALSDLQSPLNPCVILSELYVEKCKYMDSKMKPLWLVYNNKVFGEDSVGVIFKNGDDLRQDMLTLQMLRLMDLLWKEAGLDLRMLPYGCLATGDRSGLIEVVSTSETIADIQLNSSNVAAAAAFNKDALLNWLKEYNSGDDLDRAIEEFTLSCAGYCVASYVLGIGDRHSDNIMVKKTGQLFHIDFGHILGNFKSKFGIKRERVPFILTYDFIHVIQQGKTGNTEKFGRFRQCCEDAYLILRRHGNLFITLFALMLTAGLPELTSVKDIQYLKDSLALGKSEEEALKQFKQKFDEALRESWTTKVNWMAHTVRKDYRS
Assay: Inhibition of PI3K p110beta
Phrase the answer as number then unit, nothing more needed.

Below, each entry is followed by its recorded IC50 result.
1. N#CCc1ccc(-n2cnc3cnc4ccc(C#Cc5cccnc5)cc4c32)cc1	432 nM
2. Cn1c(=O)n(-c2ccc(C(C)(C)C#N)cc2)c2c3cc(C#Cc4cccnc4)ccc3ncc21	2340 nM

Please turn your attention to the following entry.
**Query** What value of IC50 has been recorded for this entry: Cc1nc2cnc3ccc(C#Cc4cccnc4)cc3c2n1-c1ccc(C(C)C#N)cc1 (stereo not drawn)
**Result** 446 nM
